- protocol: Stability in human plasma
- Type: in vitro ADME
- condition summary: human, plasma
Please provide measured half-life at 100 µM for the entries that follow.
Hi! Could you send only the number? It should be in min, unit omitted.

Task item: Look at this compound and give its reported half-life at 100 µM. CCOC(=O)[C@@]1(OC(=O)C(Cl)Cl)[C@H](C)C[C@H]2[C@@H]3CCC4=CC(=O)C=C[C@]4(C)[C@@]3(F)[C@@H](O)C[C@@]21C
Reply: 2410

Task item: Look at this compound and give its reported half-life at 100 µM. COC(=O)[C@@]1(OC(=O)C(Cl)Cl)[C@H](C)C[C@H]2[C@@H]3CCC4=CC(=O)C=C[C@]4(C)[C@@]3(F)[C@@H](O)C[C@@]21C
Reply: 656

###

- System: forearm of a human volunteer
- protocol: Further human vasoconstriction testing, Method 2
- Type: in vivo
- Parameters: key: +: "positive" (pallor could be observed); -: "negative" (pallor could not be detected)
- condition summary: 4 Hours, 0.1 mM
- Method: The mixtures, in 20 μL amounts, were applied to circular patches (1/4 inch diameter). The patches were applied to the forearm of a human volunteer, and covered with a water impervious film for 3 hr. […] In TABLE XIV above, the results of a simpler method of judging vasoconstriction activity was used in which only "positive" (pallor could be observed) or "negative" (pallor could not be detected) results were recorded.
endpoint label: Vasoconstriction activity

{"columns": ["compound", "system name", "Vasoconstriction activity"],
 "data": [
  ["CCOC(=O)[C@@]1(OC(=O)CCl)[C@H](C)C[C@H]2[C@@H]3CCC4=CC(=O)C=C[C@]4(C)[C@@]3(F)[C@@H](O)C[C@@]21C", "forearm of a human volunteer", "-"],
  ["C[C@@H]1C[C@H]2[C@@H]3CCC4=CC(=O)C=C[C@]4(C)[C@@]3(F)[C@@H](O)C[C@]2(C)[C@@]1(OC(=O)C(Cl)Cl)C(=O)OCCl", "forearm of a human volunteer", "-"],
  ["COC(=O)[C@@]1(OC(=O)C(Cl)Cl)[C@H](C)C[C@H]2[C@@H]3CCC4=CC(=O)C=C[C@]4(C)[C@@]3(F)[C@@H](O)C[C@@]21C", "forearm of a human volunteer", "+"],
  ["COC(=O)[C@@]1(OC(=O)CCl)[C@H](C)C[C@H]2[C@@H]3CCC4=CC(=O)C=C[C@]4(C)[C@@]3(F)[C@@H](O)C[C@@]21C", "forearm of a human volunteer", "-"],
  ["CCOC(=O)[C@@]1(OC(=O)C(Cl)Cl)[C@H](C)C[C@H]2[C@@H]3CCC4=CC(=O)C=C[C@]4(C)[C@@]3(F)[C@@H](O)C[C@@]21C", "forearm of a human volunteer", "-"]
]}

Task item: Look at this compound and give its reported Vasoconstriction activity. CCCCC(=O)O[C@]1(C(=O)CO)[C@@H](C)C[C@H]2[C@@H]3CCC4=CC(=O)C=C[C@]4(C)[C@@]3(F)[C@@H](O)C[C@@]21C [Betamethasone 17-valerate, reference compound]
Reply: -

###

- system name: rat lung glucocorticoid receptor (Rattus norvegicus)
- Construct: Immediately after resection of the lungs, the tissue was frozen in ice; The cytosol was prepared; from tissue; host or cells: lung cytosol of adrenalectomized male Sprague-Dawley rats
- Sequence (P06536 1-795): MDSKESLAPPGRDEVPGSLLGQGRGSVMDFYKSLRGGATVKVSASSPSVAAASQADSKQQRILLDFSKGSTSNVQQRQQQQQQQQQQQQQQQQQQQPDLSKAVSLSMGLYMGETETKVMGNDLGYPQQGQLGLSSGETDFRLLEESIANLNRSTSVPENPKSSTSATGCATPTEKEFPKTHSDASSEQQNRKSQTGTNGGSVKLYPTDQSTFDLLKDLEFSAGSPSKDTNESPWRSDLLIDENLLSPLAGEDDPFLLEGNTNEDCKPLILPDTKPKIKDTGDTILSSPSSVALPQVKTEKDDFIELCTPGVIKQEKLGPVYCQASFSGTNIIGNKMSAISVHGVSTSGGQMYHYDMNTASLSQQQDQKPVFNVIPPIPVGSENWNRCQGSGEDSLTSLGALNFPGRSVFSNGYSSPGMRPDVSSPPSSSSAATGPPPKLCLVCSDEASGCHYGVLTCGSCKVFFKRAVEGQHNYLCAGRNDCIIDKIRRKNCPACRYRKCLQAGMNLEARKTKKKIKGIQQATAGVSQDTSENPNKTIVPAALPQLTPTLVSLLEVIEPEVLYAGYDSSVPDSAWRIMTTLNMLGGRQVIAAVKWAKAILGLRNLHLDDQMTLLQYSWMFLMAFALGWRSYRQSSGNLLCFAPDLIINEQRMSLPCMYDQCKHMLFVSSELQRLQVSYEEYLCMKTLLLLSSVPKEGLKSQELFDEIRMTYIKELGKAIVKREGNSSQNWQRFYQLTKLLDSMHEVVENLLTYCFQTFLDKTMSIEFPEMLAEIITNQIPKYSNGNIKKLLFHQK
- protocol: Receptor binding studies ([3H]triamcinolone acetonide displacement)
endpoint label: IC50 (nM)
Hi! Could you send only the number? It should be in nM, unit omitted.

Task item: Look at this molecule and give its reported IC50. CC1(C)O[C@@H]2C[C@H]3[C@@H]4CCC5=CC(=O)C=C[C@]5(C)[C@@]4(F)[C@@H](O)C[C@]3(C)[C@]2(C(=O)CO)O1 [Triamcinolone acetonide, reference compound]
Reply: 13

###

Please provide measured Thymolysis, Relative Potency at ED40 Level (b) for the entries that follow.
- Test system: thymi
- Parameters: species or system male Sprague-Dawley rats
- condition summary: rat, in vivo, sc

Task item: Thymolysis, Relative Potency at ED40 Level (b) of CCCCC(=O)O[C@]1(C(=O)CO)[C@@H](C)C[C@H]2[C@@H]3CCC4=CC(=O)C=C[C@]4(C)[C@@]3(F)[C@@H](O)C[C@@]21C [Betamethasone 17-valerate, reference compound] on thymi?
Reply: 100

Task item: Thymolysis, Relative Potency at ED40 Level (b) of COC(=O)[C@@]1(OC(=O)C(Cl)Cl)[C@H](C)C[C@H]2[C@@H]3CCC4=CC(=O)C=C[C@]4(C)[C@@]3(F)[C@@H](O)C[C@@]21C on thymi?
Reply: 156

Task item: Thymolysis, Relative Potency at ED40 Level (b) of CCC(=O)O[C@]1(C(=O)CCl)[C@@H](C)C[C@H]2[C@@H]3CCC4=CC(=O)C=C[C@]4(C)[C@@]3(F)[C@@H](O)C[C@@]21C [Clobetasol 17-propionate] on thymi?
Reply: 1927

Task item: Thymolysis, Relative Potency at ED40 Level (b) of CCCC(=O)O[C@]1(C(=O)CO)CC[C@H]2[C@@H]3CCC4=CC(=O)CC[C@]4(C)[C@H]3[C@@H](O)C[C@@]21C [Hydrocortisone 17-butyrate] on thymi?
Reply: 57

###

- system name: rat lung glucocorticoid receptor (Rattus norvegicus)
- Construct: Immediately after resection of the lungs, the tissue was frozen in ice; The cytosol was prepared; from tissue; host or cells: lung cytosol of adrenalectomized male Sprague-Dawley rats
- protocol: Receptor binding studies ([3H]triamcinolone acetonide displacement)
- condition summary: with respect to dexamethasone (RBA = 100); with Δ1-cortienic acid
endpoint label: Relative binding affinity (RBA)

Task item: Look at this molecule and give its reported Relative binding affinity (RBA). C[C@]12C=CC(=O)C=C1CC[C@@H]1[C@@H]2[C@@H](O)C[C@@]2(C)[C@H]1CC[C@]2(OC(=O)C(Cl)Cl)C(=O)O [H]
Reply: < 2

Task item: Look at this molecule and give its reported Relative binding affinity (RBA). CC(C)OC(=O)[C@@]1(O)CC[C@H]2[C@@H]3CCC4=CC(=O)C=C[C@]4(C)[C@H]3[C@@H](O)C[C@@]21C [G]
Reply: < 1

Task item: Look at this molecule and give its reported Relative binding affinity (RBA). CCOC(=O)[C@@]1(O)CC[C@H]2[C@@H]3CCC4=CC(=O)C=C[C@]4(C)[C@H]3[C@@H](O)C[C@@]21C [F]
Reply: < 1

Task item: Look at this molecule and give its reported Relative binding affinity (RBA). COC(=O)[C@@]1(O)CC[C@H]2[C@@H]3CCC4=CC(=O)C=C[C@]4(C)[C@H]3[C@@H](O)C[C@@]21C [E]
Reply: < 1
